Quick reference: activity coefficient of the listed items.
- measurement notes: activity coefficient (dimensionless); of the first substance listed, at infinite dilution; xn = mol fraction of the nth substance listed
- assay conditions: 323.15 K; Liquid; Chromatography; x1 = 0
property name: activity coefficient

{"compound": "CCCCO [butan-1-ol] + CCCOC[n+]1ccn(Cc2ccccc2)c1.N#C[N-]C#N", "property name": "activity coefficient", "result": 0.93}
{"compound": "C[N+](=O)[O-] [nitromethane] + CCCOC[n+]1ccn(Cc2ccccc2)c1.N#C[N-]C#N", "property name": "activity coefficient", "result": 1.06}
{"compound": "CC#N [acetonitrile] + CCCCCCCCn1cc[n+](COCCC)c1C.N#C[N-]C#N", "property name": "activity coefficient", "result": 0.72}
{"compound": "C#CCCCC [1-hexyne] + CCCCCCCCn1cc[n+](COCCC)c1C.O=S(=O)([N-]S(=O)(=O)C(F)(F)F)C(F)(F)F", "property name": "activity coefficient", "result": 1.39}
{"compound": "C1CCCCC1 [cyclohexane] + CCCOC[n+]1ccn(C)c1.F[B-](F)(F)F", "property name": "activity coefficient", "result": 46.7}
{"compound": "CCCCO [butan-1-ol] + CCCOC[n+]1ccc(N(C)C)cc1.O=S(=O)([N-]S(=O)(=O)C(F)(F)F)C(F)(F)F", "property name": "activity coefficient", "result": 2.25}
{"compound": "CCCCCCCCC [nonane] + CCCOC[n+]1ccn(C)c1.F[B-](F)(F)F", "property name": "activity coefficient", "result": 553}
{"compound": "CCCCCCCCCCCCCC [tetradecane] + CCCOC[n+]1ccn(C)c1.N#C[N-]C#N", "property name": "activity coefficient", "result": 1510}
